Target: recombinant human lysosomal β-glucocerebrosidase (GCase, GH30) (Homo sapiens, UniProt P04062)
Sequence (P04062 40-536): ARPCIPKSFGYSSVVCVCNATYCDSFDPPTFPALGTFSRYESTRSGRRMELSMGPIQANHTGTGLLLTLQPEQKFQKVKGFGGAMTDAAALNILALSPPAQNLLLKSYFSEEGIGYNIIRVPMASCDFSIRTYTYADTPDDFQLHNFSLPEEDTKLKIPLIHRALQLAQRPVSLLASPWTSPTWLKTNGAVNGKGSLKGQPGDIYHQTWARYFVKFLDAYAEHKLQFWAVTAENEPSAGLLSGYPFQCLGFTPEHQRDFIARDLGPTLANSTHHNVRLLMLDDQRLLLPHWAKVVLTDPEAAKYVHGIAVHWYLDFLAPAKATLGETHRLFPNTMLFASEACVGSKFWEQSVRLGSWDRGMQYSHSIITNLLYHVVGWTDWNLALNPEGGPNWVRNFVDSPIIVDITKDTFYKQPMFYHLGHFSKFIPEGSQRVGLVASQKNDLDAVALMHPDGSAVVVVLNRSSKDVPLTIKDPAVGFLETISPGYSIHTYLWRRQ
Test: Ki determination, GCase (β-glucocerebrosidase)
Type: biochemical
Settings: pH 7, substrate 2,4-DNP β-Glc, room temperature; read-out: Ki GCase (GH30) β-Glc
Provide the recorded Ki for the entries that follow.
Numbers only, in nM.

Known Ki results, listed for orientation:
1) N#CCCCCCOc1ccc(C(=O)OCCCCCCN2C[C@H](O)[C@@H](O)[C@H](O)[C@H]2CO)cc1 :: 280
2) O=C(OCCCCCCN1C[C@H](O)[C@@H](O)[C@H](O)[C@H]1CO)c1ccc(OCCOCCOC(C(F)(F)F)(C(F)(F)F)C(F)(F)F)cc1 :: 350
3) [N-]=[N+]=NCCOCCOc1ccc(C(=O)OCCCCCCN2C[C@@H](O)[C@H](O)[C@@H](O)C2)cc1 :: 1400
4) N#CCCCCCOc1ccc(C(=O)OCCCCCCN2C[C@@H](O)[C@H](O)[C@@H](O)C2)cc1 :: 620

Batch request: Ki per item, same order as input.
1. [N-]=[N+]=NCCOCCOc1ccc(C(=O)OCCCCCCN2C[C@H](O)[C@@H](O)[C@H](O)[C@H]2CO)cc1
2. O=C(NCCc1ccc(C(=O)OCCCCCCN2C[C@@H](O)[C@H](O)[C@@H](O)C2)cc1)OCc1ccccc1

1: 90; 2: 310

Batch request: Ki per item, same order as input.
1. C#CCOc1ccc(C(=O)OCCCCCCN2C[C@@H](O)[C@H](O)[C@@H](O)C2)cc1
2. C#CCOc1ccc(C(=O)OCCCCCCN2C[C@H](O)[C@@H](O)[C@H](O)[C@H]2CO)cc1
3. O=C(OCCCCCCN1C[C@@H](O)[C@H](O)[C@@H](O)C1)c1ccc(OCCOCCOC(C(F)(F)F)(C(F)(F)F)C(F)(F)F)cc1

1: 740; 2: 370; 3: 400

All values here come from paper PMC7594070.
